Test system: SN12C
Test: NCI tumour cell line growth inhibition, 48 h
Calls of active or inactive are those of the source. No stated cut-off is given here; in the data, active = GI50 up to about 1.1 µM and inactive = higher.
Answer with one of the outcomes yes = active, no = inactive

[ask] Called result for Cc1nn(-c2cc(Cl)ccc2[N+](=O)[O-])c(C)c1Cl
[reply] no

[ask] State the result this test recorded for O=C(O)CCc1ccc2c(c1)C(=O)CC2 .
[reply] no

[ask] Which result was noted for this molecule in the test: NC(=O)C(=CNC(=S)Nc1ccccc1)C(N)=O
[reply] no

[ask] # fetch the recorded call for CCOC(=O)NC(C(C(=O)OCC)C(=O)OCC)(C(F)(F)F)C(F)(F)F here
[reply] no

[ask] Write down the call the test reported for this molecule. Item: Cc1cn(C2CC(N=[N+]=[N-])C(CO)O2)c(=O)n(CCCCO)c1=O (stereo not drawn)
[reply] no

[ask] What was the test verdict on CC[C@@]1(O)C(=O)OCc2c1cc1n(c2=O)Cc2cc3cc(OC)ccc3nc2-1 ?
[reply] yes

[ask] Status in this test for CCOC(=O)c1c(C)c(C)n2c1NC(=O)C2 ?
[reply] no

[ask] Short answer needed: outcome of this test for O=[N+]([O-])c1cccc2nc3ccccc3c(NCCN(CCO)CCO)c12 ?
[reply] yes

[ask] Hi, do you know how CCOC(=O)N1CCN(Cc2cc(=O)n3cc(C)ccc3n2)CC1 came out in this test?
[reply] no

[ask] Returns: the outcome recorded for S=C(NN=C1NCCCCN1)Nc1ccccc1 in this assay.
[reply] no

[ask] Query: recorded result category for COc1cccc(OC)c1/C=N\N1C(=O)c2ccccc2C1=O in this test
[reply] no

[ask] // return assay outcome for C=CC/C(C(=O)OC)=C(/C(=O)OC)N(CCC)CCC
[reply] no

[ask] What classification did CC(C)=CCC/C(C)=C/CC/C(C)=C/CCC1(C)CCC([C@H](C)C(=O)O)OO1.CC1=C(CC/C(C)=C/CCC2(C)CCC([C@H](C)C(=O)O)OO2)C(C)(C)CCC1 (stereo partly drawn) end up with in this test?
[reply] no

[ask] Hey, what did the test say about CC(=O)Nc1ccc(N2C(=O)CS(=O)(=O)C2c2cccc(Oc3ccccc3)c2)cc1 (stereo not drawn) ?
[reply] no

[ask] What is the recorded call for this molecule in the test? N#CCC(=O)N/N=C(\CCN1CCCC1)CC(c1ccccc1)c1c(O)c2ccccc2oc1=O (stereo not drawn)
[reply] no

[ask] Any idea what this test logged for CC(C)=CC(=O)c1c(C(=O)O)nc2ccccc2[n+]1[O-] ?
[reply] no

[ask] // param item: O=C(CSc1nc2ccc(I)cc2c(=O)n1Cc1ccccc1)NN1C(=O)CSC1c1ccccc1 (stereo not drawn) ; yields the recorded call
[reply] no

[ask] Hi, sorry to bother you, what did the test record for COc1ccc(/C=C/C(=O)/C=C/c2ccc(OC)cc2OC)c(OC)c1 ?
[reply] no

[ask] Hi team, can someone confirm the assay call for COC(=O)C1=C(O)C(C(=O)OC)[C@]2(O)[C@H](C(=O)OC)[C@H]1C[C@@H](c1ccc(C(F)(F)F)cc1)[C@H]2C(=O)OC (stereo partly drawn) ?
[reply] no

[ask] Fill in: this test's call for CC1(C2CCC3(C)C(C2)C3Sc2ccccc2)OCCO1 (stereo not drawn) is ___
[reply] no

[ask] Kindly provide the recorded test outcome for the following molecule: N#CC(NNC(=O)Cc1ccccc1)c1c(O)ccc2ccccc12 (stereo not drawn)
[reply] no

[ask] Recorded test outcome, item CC(=O)OCC1=CC2OC(=O)C3=COC(OC4OC(CO)C(O)C(O)C4O)C1C32 (stereo not drawn)
[reply] no

[ask] Hey, what did the test say about C=C(Br)CN(C(C)=O)C1CCCCC1 ?
[reply] no

[ask] Would you mind telling me which call this test gave O=C(O)CC[C@H](NC(=O)c1ccc(-n2nc3ccc(=O)cc-3[nH]c2=O)cc1)C(=O)O ?
[reply] no

[ask] Query: recorded result category for N#CC1=C(N)OC2=C(CCCc3ccccc32)C1c1ccc([N+](=O)[O-])cc1 (stereo not drawn) in this test
[reply] no

[ask] Which result was noted for this molecule in the test: OCCCCn1cc(Cn2ncc3c(NCc4ccccc4)ncnc32)nn1
[reply] no

[ask] What is the recorded call for this molecule in the test? Oc1ccccc1/C=N/c1ccc(Oc2ccc(Cl)cc2)c(Cl)c1
[reply] no

[ask] // param item: C=C1C(=O)O[C@H]2[C@@H]3O[C@@](C)(CC/C=C(\C)CCC[C@@H]2C)[C@H](O)C[C@@H]13 ; yields the recorded call
[reply] no

[ask] How did this test come out for Cc1cc2c(c3c1c1ccccc1n3C)C(=O)C=CC2=O ?
[reply] no

[ask] Give the logged outcome of this assay for the following molecule: CN1c2c(O)nc(N)nc2NCC1CCNc1ccc(C(=O)NC(CCC(=O)O)C(=O)O)cc1 (stereo not drawn)
[reply] no

[ask] Outcome? CCOC(=O)c1nnsc1NN=C(C)C
[reply] no

[ask] GET /call?item= CCOC(=O)c1[nH]c(COC(C)=O)c2c1CCCCCCCCCC2 returns the recorded outcome of this test.
[reply] no

[ask] Dear all, I need the recorded test outcome for CC(N)Cc1ccc(F)cc1 (stereo not drawn) , thank you.
[reply] no

[ask] Outcome? N=C(N)N/N=C/c1c(-c2ccccc2[N+](=O)[O-])nc2sccn12
[reply] no

[ask] Assay outcome for CC1CC(c2ccc([N+](=O)[O-])cc2)=Nc2ccccc2[S+]1[O-] (stereo not drawn) : what was it?
[reply] no

[ask] GET /call?item= COc1ccc2c(c1)CC[C@@H]1C2CC[C@]2(C)C(=C=CP(=O)(O)O)CCC12 (stereo partly drawn) returns the recorded outcome of this test.
[reply] no

[ask] Dear colleague, could you share the recorded outcome for COc1ccc(C2SC(=N)Nc3c2c(C)nn3C(=O)c2ccncc2)cc1OC (stereo not drawn) when you have a moment?
[reply] no

[ask] What classification did CS(=O)(=O)NC12CCC(c3ccccc31)c1ccccc12 end up with in this test?
[reply] no

[ask] For Cc1nc(C(N)=S)sc1C(=O)/C=C/c1cccc(O)c1 , what call appears in the results of this test?
[reply] no

[ask] Give the logged outcome of this assay for the following molecule: O=C1N2CCC[C@H]2CS1(=O)=O
[reply] no

[ask] Record request — test call for CC(C)(C)CC(N)=O
[reply] no

[ask] In this assay, the call recorded for COc1cc(C(=O)CBr)c(OC)cc1C was what?
[reply] no

[ask] Assay outcome for CC(C)[Si]1(C(C)C)OCC2OC(n3cnc4c(N)ncnc43)C(N)C2O[Si](C(C)C)(C(C)C)O1 (stereo not drawn) : what was it?
[reply] no
